As an illustration, consider measured Ki for compounds on BACE (Homo sapiens, UniProt P56817).
Sequence (P56817 46-501): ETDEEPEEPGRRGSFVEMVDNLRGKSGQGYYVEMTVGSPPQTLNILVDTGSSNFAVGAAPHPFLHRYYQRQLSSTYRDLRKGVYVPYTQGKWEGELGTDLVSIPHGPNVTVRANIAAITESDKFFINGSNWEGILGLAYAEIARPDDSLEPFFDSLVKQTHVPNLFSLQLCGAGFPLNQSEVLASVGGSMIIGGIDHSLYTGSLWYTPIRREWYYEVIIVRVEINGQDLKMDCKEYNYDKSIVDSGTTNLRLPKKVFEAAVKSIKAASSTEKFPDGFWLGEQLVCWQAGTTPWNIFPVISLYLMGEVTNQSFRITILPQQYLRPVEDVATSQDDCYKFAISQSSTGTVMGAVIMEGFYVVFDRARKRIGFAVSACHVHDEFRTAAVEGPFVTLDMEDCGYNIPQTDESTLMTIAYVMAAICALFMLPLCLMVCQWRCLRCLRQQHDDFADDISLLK

For orientation, consider the following solved cases.
O=C1CCCc2c(OCc3ccc(COc4ccccc4C(F)(F)F)cc3C3=CCNCC3)cccc21 [Compound 331] : < 3 µM
O=C(Nc1ccccc1)C1CNCCC1c1ccc(COc2ccccc2C(F)(F)F)cc1 (stereo not drawn) [Compound 204] : > 30 µM
O=C(OCc1ccccc1-c1ccc(C2=CCNCC2)c(COc2ccccc2C(F)(F)F)c1)c1ccccc1C(F)(F)F [Compound 380] : < 3 µM
c1ccc(COc2ccc3c(c2)c2c(n3Cc3ccc4ccccc4c3)CNCC2)cc1 [Compound 305] : 3 to 30 µM
O=C(Nc1cc(-c2cc(Cl)cc(Cl)c2Cl)ccc1N1CCNCC1)c1cccc2ccccc12 [Compound 109] : < 3 µM

Pending compound:
GET /value?item= O=C(Cc1cccc2ccccc12)Nc1cc(C(F)(F)F)ccc1N1CCNCC1 [Compound 134] &field=Ki returns > 30 µM
